The reported numbers originate from patent US20240092758A1.

Would you kindly list IC50 for each of these molecules?
System: IL-13 induced STAT6 phosphorylation in BEAS-2B human lung epithelial cells
TEST DETAILS: Cellular JAKI potency assay (BEAS-2B)
Format: cell-based
CONDITION PARAMETERS: Homo sapiens, BEAS-2B, BEAS-2B cells, read-out: BEAS2B pIC50 (converted)

I'm curious: which IC50 was measured for CCc1cc(O)ccc1-c1ccc2c(-c3nc(C4=CCN(C(C)=O)C4)c[nH]3)n[nH]c2c1F [Example 171] tested on IL-13 induced STAT6 phosphorylation in BEAS-2B human lung epithelial cells?
10 to 31.6 nM

I'm curious: which IC50 was measured for CCOC(=O)C1=C(c2c[nH]c(-c3n[nH]c4cc(-c5ccc(O)cc5CC)ccc34)n2)CCNC1 [Example 354] tested on IL-13 induced STAT6 phosphorylation in BEAS-2B human lung epithelial cells?
31.6 to 100 nM

I'm curious: which IC50 was measured for CCc1cc(O)ccc1-c1ccc2c(-c3nc(C4=CCCN(CC5COC5)C4)c[nH]3)n[nH]c2c1F [Example 68] tested on IL-13 induced STAT6 phosphorylation in BEAS-2B human lung epithelial cells?
10 to 31.6 nM

I'm curious: which IC50 was measured for CCc1cc(O)ccc1-c1ccc2c(-c3nc(C4=CCN(CCS(=O)(=O)NC)C4)c[nH]3)n[nH]c2c1F [Example 393] tested on IL-13 induced STAT6 phosphorylation in BEAS-2B human lung epithelial cells?
100 to 316 nM

I'm curious: which IC50 was measured for CCc1cc(O)ccc1-c1ccc2c(-c3nc(C4=CC[C@H](C)N(CCNS(C)(=O)=O)C4)c[nH]3)n[nH]c2c1F [Example 278] tested on IL-13 induced STAT6 phosphorylation in BEAS-2B human lung epithelial cells?
10 to 31.6 nM

I'm curious: which IC50 was measured for CCc1cc(O)ccc1-c1ccc2c(-c3nc(C4=CCN(CCNS(C)(=O)=O)C4)c[nH]3)n[nH]c2c1F [Example 115] tested on IL-13 induced STAT6 phosphorylation in BEAS-2B human lung epithelial cells?
10 to 31.6 nM

I'm curious: which IC50 was measured for Oc1ccc(-c2ccc3c(-c4nc(C5=CCNCC5)c[nH]4)n[nH]c3c2F)c(CC(F)(F)F)c1 [Example 387] tested on IL-13 induced STAT6 phosphorylation in BEAS-2B human lung epithelial cells?
31.6 to 100 nM

I'm curious: which IC50 was measured for CCc1cc(O)ccc1-c1ccc2c(-c3nc(C4=CC(C)CNC4)c[nH]3)n[nH]c2c1F (stereo not drawn) [Example 327] tested on IL-13 induced STAT6 phosphorylation in BEAS-2B human lung epithelial cells?
10 to 31.6 nM

I'm curious: which IC50 was measured for CCc1cc(O)ccc1-c1ccc2c(-c3nc(C4=CCCN(C)C4)c[nH]3)n[nH]c2c1 [Example 27] tested on IL-13 induced STAT6 phosphorylation in BEAS-2B human lung epithelial cells?
3.16 to 10 nM

I'm curious: which IC50 was measured for CCc1cc(O)ccc1-c1ccc2c(-c3nc(C4=CCN(Cc5ccn[nH]5)C4)c[nH]3)n[nH]c2c1 [Example 143] tested on IL-13 induced STAT6 phosphorylation in BEAS-2B human lung epithelial cells?
10 to 31.6 nM

I'm curious: which IC50 was measured for CCc1cc(O)ccc1-c1ccc2c(-c3nc(C4=CCN(CCN)C4)c[nH]3)n[nH]c2c1F [Example 203] tested on IL-13 induced STAT6 phosphorylation in BEAS-2B human lung epithelial cells?
31.6 to 100 nM

I'm curious: which IC50 was measured for CCc1cc(O)ccc1-c1ccc2c(-c3nc(C4=CCN(CCCO)CC4)c[nH]3)n[nH]c2c1 [Example 34] tested on IL-13 induced STAT6 phosphorylation in BEAS-2B human lung epithelial cells?
3.16 to 10 nM

I'm curious: which IC50 was measured for CCc1cc(O)ccc1-c1ccc2c(-c3nc(C4=CCN(S(C)(=O)=O)C4)c[nH]3)n[nH]c2c1 [Example 167] tested on IL-13 induced STAT6 phosphorylation in BEAS-2B human lung epithelial cells?
3.16 to 10 nM

I'm curious: which IC50 was measured for CCc1cc(O)ccc1-c1ccc2c(-c3nc(C4=C[C@H](CC(=O)N5CCOCC5)NC4)c[nH]3)n[nH]c2c1F [Example 361] tested on IL-13 induced STAT6 phosphorylation in BEAS-2B human lung epithelial cells?
31.6 to 100 nM

I'm curious: which IC50 was measured for CCOC(=O)C1=C(c2c[nH]c(-c3n[nH]c4c(F)c(-c5ccc(O)cc5CC)ccc34)n2)CCNC1 [Example 323] tested on IL-13 induced STAT6 phosphorylation in BEAS-2B human lung epithelial cells?
10 to 31.6 nM
